Examples of binders with documented In vitro activity compared with native peptide (%) vs GLP-1 (cAMP EC50) follow.
- System Under Test: human GLP-1 receptor (human, UniProt P43220 24-463)
- Assay Details: cell-based or functional assay
Bridge positions count the residues as written; N and C are the ends. Square brackets hold non-standard residues; d marks the D form. Ends that are not written are not given here. Aib = CC(C)(N)C(=O)O
Parameter Measured: In vitro activity compared with native peptide (%) vs GLP-1 (cAMP EC50)

>>> measured("H[Aib]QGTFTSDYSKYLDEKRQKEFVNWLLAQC (bridge (positions not given here); also: ring formation between two underlined residues) [triple agonist of SEQ ID NO: 56]")
"57.9%"
>>> measured("H[Aib]QGTFTSDCSKYLDSRAAQDFVQWLLDGGPSSGAPPPS [triple agonist of SEQ ID NO: 26]")
"64.5%"
>>> measured("Y[Aib]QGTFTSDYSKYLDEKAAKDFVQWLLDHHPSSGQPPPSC (bridge 16-20) [triple agonist of SEQ ID NO: 77]")
"38.7%"
